Taken from paper PMC7519686.

- TARGET_SYSTEM: LysG-A219L (Corynebacterium glutamicum, UniProt P94632, A219L)
- ASSAY_NOTES: ITC with purified protein (fixed stoichiometry of two ligands per tetramer)
- Type: binding
READOUT: Kd (mM)

{"QUERY_SMILES": "N=C(N)NCCC[C@H](N)C(=O)O", "RESULT_VALUE": 9.62}

----------
- TARGET_SYSTEM: LysG-A219L (Corynebacterium glutamicum, UniProt P94632, A219L)
- ASSAY_NOTES: ITC with purified protein
- Type: binding
pKd: −log10 of the molar value.
READOUT: pKd

{"QUERY_SMILES": "N[C@@H](Cc1c[nH]cn1)C(=O)O", "TARGET_SYSTEM": "LysG-A219L (Corynebacterium glutamicum, UniProt P94632, A219L)", "RESULT_VALUE": 4.68}
